- System Under Test: cellular COX-II (Homo sapiens)
- Construct: stimulated human fetal dermal fibroblasts (HFDF, derived from primary cell cultures); endogenous in cells
- Sequence (P35354 18-604): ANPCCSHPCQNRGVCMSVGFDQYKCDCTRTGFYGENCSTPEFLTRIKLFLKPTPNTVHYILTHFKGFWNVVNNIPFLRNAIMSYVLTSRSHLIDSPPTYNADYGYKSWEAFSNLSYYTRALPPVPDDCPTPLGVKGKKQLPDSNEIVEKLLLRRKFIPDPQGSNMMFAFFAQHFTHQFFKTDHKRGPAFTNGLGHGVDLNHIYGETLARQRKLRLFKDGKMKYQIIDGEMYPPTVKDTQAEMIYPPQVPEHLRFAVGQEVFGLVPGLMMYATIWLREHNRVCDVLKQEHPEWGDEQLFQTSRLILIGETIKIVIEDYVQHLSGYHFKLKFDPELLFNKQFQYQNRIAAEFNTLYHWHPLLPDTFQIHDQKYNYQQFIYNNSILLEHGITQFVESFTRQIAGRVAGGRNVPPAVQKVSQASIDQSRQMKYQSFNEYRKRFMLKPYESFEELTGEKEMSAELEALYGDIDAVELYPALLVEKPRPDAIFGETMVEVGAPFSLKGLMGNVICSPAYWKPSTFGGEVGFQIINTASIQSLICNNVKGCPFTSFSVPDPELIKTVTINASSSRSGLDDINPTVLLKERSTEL
- Test Protocol: Cellular COX-II Assay (Cell Fibroblast Assay)
- Experimental Setup: IL-1 beta stimulated human fetal dermal fibroblasts; 20 μM arachidonic acid; PGE2 by ELISA
Readout: IC50 (nM)

* CC(C)(C)c1cc(C[C@@H]2CCC[C@H]2OCC(=O)O)cc(C(C)(C)C)c1 (relative stereo) [Example 8] | 2

---

Let's look at some compounds and their measured pIC50.
- System Under Test: human COX-I (Homo sapiens, UniProt P23219)
- Construct: coding fragment from Caymen Chemical, Ann Arbor, Mich
- Sequence (P23219 24-599): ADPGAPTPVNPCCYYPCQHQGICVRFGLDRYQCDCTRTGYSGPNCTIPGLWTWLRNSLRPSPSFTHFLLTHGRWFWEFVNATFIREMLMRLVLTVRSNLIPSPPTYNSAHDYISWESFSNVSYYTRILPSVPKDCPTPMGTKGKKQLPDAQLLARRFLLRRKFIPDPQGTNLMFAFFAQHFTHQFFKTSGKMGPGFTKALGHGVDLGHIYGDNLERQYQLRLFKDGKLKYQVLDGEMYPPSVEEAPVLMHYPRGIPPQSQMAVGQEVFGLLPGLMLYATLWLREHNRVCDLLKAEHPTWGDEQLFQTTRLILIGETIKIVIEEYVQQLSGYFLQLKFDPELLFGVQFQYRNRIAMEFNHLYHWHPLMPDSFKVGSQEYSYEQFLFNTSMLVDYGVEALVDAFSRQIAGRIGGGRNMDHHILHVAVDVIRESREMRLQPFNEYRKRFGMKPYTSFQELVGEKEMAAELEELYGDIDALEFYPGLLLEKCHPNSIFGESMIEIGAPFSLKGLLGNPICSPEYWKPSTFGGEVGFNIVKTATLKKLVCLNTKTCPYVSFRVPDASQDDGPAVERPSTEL
- Test Protocol: Human Enzyme Assay, COX-I (recombinant enzyme, PGE2 ELISA)
- Experimental Setup: 10 μM arachidonic acid, 10-20 min pre-incubation
pIC50: −log10 of the molar value.
Readout: pIC50

• CC(C)(C)c1cc(C[C@H]2CCC[C@H]2OCC(=O)O)cc(C(C)(C)C)c1 (relative stereo) = < 4.00
• CC(C)(C)c1cc(C[C@@H]2CCC[C@H]2OCC(=O)O)cc(C(C)(C)C)c1 (relative stereo) = < 4.00
